Attribution: a melting point compilation (Tetko et al.; mined from patent text by program, amines drawn as free bases though some values may be those of a salt)

melting point values, listed per item
Endpoint: melting point

>  <Compound>
CN(C)C1(c2ccc(F)cc2)CCC(=O)CC1

>  <Recorded Value>
128 to 133 °C

$$$$
>  <Compound>
COC(=O)c1sc2ccccc2c1NC(C)=O

>  <Recorded Value>
178 to 180 °C

$$$$
>  <Compound>
CC(=O)OC1CSC(Oc2cncc(-c3cccnc3)c2)C(OC(C)=O)C1OC(C)=O (centres undefined)

>  <Recorded Value>
149 °C

$$$$
>  <Compound>
Cc1[nH]c(C(=O)N2CCN(c3ccccc3)CC2)c(C)c1-c1nc2ccc(C(=O)c3ccccc3)cc2[nH]1

>  <Recorded Value>
145 to 147 °C

$$$$
>  <Compound>
CC1CC(=O)NN=C1c1ccc(NC(=O)C2CC2(C)C)cc1 (centres undefined)

>  <Recorded Value>
222 to 223 °C

$$$$
>  <Compound>
COC(=O)c1snc(-c2cc(OC)c(Cl)cc2F)c1N

>  <Recorded Value>
121 to 124 °C

$$$$
>  <Compound>
NC1CCC(CC2CCC(Nc3ncc4ncnc(Nc5ccc(F)c(Cl)c5)c4n3)CC2)CC1 (centres undefined)

>  <Recorded Value>
164 to 166 °C

$$$$
>  <Compound>
CNC(=O)Oc1ccc(N=C(C)c2ccccc2O)c(C)c1

>  <Recorded Value>
133 to 138 °C

$$$$
>  <Compound>
N#Cc1cccc(Oc2ncccc2C(=O)NCc2ccc(S(N)(=O)=O)cc2)c1

>  <Recorded Value>
179 to 180 °C

$$$$

---

Item-by-item account of melting point
Endpoint: melting point

>  <Molecule>
COc1ccc(Oc2nccc(-c3c(-c4ccc(F)cc4)ncn3C3CCNCC3)n2)cc1

>  <Endpoint>
melting point

>  <Recorded Value>
190 to 191 °C

$$$$
>  <Molecule>
CC(CO)N1CCN(c2ccccn2)CC1 (stereo unspecified)

>  <Endpoint>
melting point

>  <Recorded Value>
62 to 64 °C

$$$$
>  <Molecule>
CCOC(=O)C1=C(COCc2ccc(CN3CCOCC3)o2)NC(C)=C(C(=O)OC)C1c1ccccc1Cl (stereo unspecified)

>  <Endpoint>
melting point

>  <Recorded Value>
85 to 87 °C

$$$$
>  <Molecule>
COc1cccc2c1CCCC2=NNc1nc(-c2ccc(Cl)cc2Cl)cs1

>  <Endpoint>
melting point

>  <Recorded Value>
200 °C

$$$$
>  <Molecule>
CCCCCc1ccc(C#Cc2c3ccccc3c3ccc4c(C#Cc5ccc(CCCCC)cc5)c5ccccc5c5ccc2c3c45)cc1

>  <Endpoint>
melting point

>  <Recorded Value>
256 to 257 °C

$$$$
>  <Molecule>
CCCCCCc1ccc(S(=O)(=O)Nc2nncs2)cc1

>  <Endpoint>
melting point

>  <Recorded Value>
125 to 126 °C

$$$$
>  <Molecule>
CCc1nc(C2CC2)c(C(=O)O)n1Cc1ccc2oc(-c3ccccc3C(=O)NS(=O)(=O)c3ccccc3)c(Br)c2c1

>  <Endpoint>
melting point

>  <Recorded Value>
176 to 178 °C

$$$$
>  <Molecule>
Cc1cccc(-c2nc(NC(=O)c3cccnc3)sc2-c2ccnc(NCc3ccccc3)c2)c1

>  <Endpoint>
melting point

>  <Recorded Value>
220 to 222 °C

$$$$
>  <Molecule>
N#CC1(N)CCSCC1

>  <Endpoint>
melting point

>  <Recorded Value>
51 to 52 °C

$$$$
>  <Molecule>
Cc1ccc(-c2ccc3c(c2)C=C(C(=O)N[C@H]2CC[C@H](CN(C)C4CCOCC4)CC2)CCO3)cc1

>  <Endpoint>
melting point

>  <Recorded Value>
144 to 146 °C

$$$$
>  <Molecule>
CCCCCCC1c2sccc2CCN1CCNC(=O)c1ccc(NS(C)(=O)=O)cc1 (stereo unspecified)

>  <Endpoint>
melting point

>  <Recorded Value>
132 to 134 °C

$$$$
>  <Molecule>
O=C(NOCC(O)CN1CCCCC1)Nc1cccc(Cl)c1 (stereo unspecified)

>  <Endpoint>
melting point

>  <Recorded Value>
117 to 118 °C

$$$$
>  <Molecule>
CCOCCCNc1nc(C)[nH]c2cc(-c3ccccc3)nc1-2

>  <Endpoint>
melting point

>  <Recorded Value>
208 to 210 °C

$$$$
>  <Molecule>
CCOC(=O)CCOc1cccc2c1CCC2=O

>  <Endpoint>
melting point

>  <Recorded Value>
90 to 92 °C

$$$$
>  <Molecule>
CC(C)c1ccc2ncn(/C=C/C(=O)O)c(=O)c2c1

>  <Endpoint>
melting point

>  <Recorded Value>
242 to 243 °C

$$$$
>  <Molecule>
BrCc1ccc(-c2nnn(C(c3ccccc3)(c3ccccc3)c3ccccc3)n2)cc1

>  <Endpoint>
melting point

>  <Recorded Value>
165 to 172 °C

$$$$
>  <Molecule>
CCNC(=O)[C@@H]1C[C@H](OS(C)(=O)=O)CN1C(=O)OC(C)(C)C

>  <Endpoint>
melting point

>  <Recorded Value>
138 to 140 °C

$$$$
>  <Molecule>
Cc1ccc(-n2cnc3nncc-3c2N)cc1

>  <Endpoint>
melting point

>  <Recorded Value>
> 300 °C

$$$$
>  <Molecule>
CN(C)Cc1nc(-c2ncn3c2[C@@H]2CCN2C(=O)c2cc(F)ccc2-3)no1

>  <Endpoint>
melting point

>  <Recorded Value>
150 to 155 °C

$$$$
>  <Molecule>
c1ccc2c(c1)CSSC2

>  <Endpoint>
melting point

>  <Recorded Value>
77 to 78 °C

$$$$
>  <Molecule>
COC(=O)c1ccc(SC)c(C(F)(F)F)c1

>  <Endpoint>
melting point

>  <Recorded Value>
76 to 77 °C

$$$$
>  <Molecule>
CCCNC(=O)c1ccc2c(c1)N(C(C)CN1CCCC1)c1ccccc1S2 (racemic)

>  <Endpoint>
melting point

>  <Recorded Value>
75 to 80 °C

$$$$
>  <Molecule>
Cc1oc(-c2ccccc2)nc1COc1cccc(/C=C/C=O)c1

>  <Endpoint>
melting point

>  <Recorded Value>
103 to 104 °C

$$$$
>  <Molecule>
CN(Cc1cc2c(=O)c(C(=O)NCc3ccc(Cl)cc3)cn(C)c2s1)CC(O)c1ccccc1 (stereo unspecified)

>  <Endpoint>
melting point

>  <Recorded Value>
162 to 164 °C

$$$$
>  <Molecule>
CCc1cc(OCc2ccc(C(=O)NS(=O)(=O)c3ccccc3C)cc2)c(C(=O)OC)c(CC)n1

>  <Endpoint>
melting point

>  <Recorded Value>
175 to 176 °C

$$$$
>  <Molecule>
Cc1nc(C)n(-c2cc([C@@H]3C[C@H]3c3nc4ccccc4n3C)nc(N)n2)n1 (relative stereo)

>  <Endpoint>
melting point

>  <Recorded Value>
120 to 122 °C

$$$$
>  <Molecule>
Nc1nc(N)c(-c2ccc(Cl)cc2Cl)c(C(=O)O)n1

>  <Endpoint>
melting point

>  <Recorded Value>
221 °C

$$$$
>  <Molecule>
CC(=O)c1ccc(-c2ccc(OCc3ccc4ccccc4n3)cc2)c([N+](=O)[O-])c1

>  <Endpoint>
melting point

>  <Recorded Value>
160 to 162 °C

$$$$
>  <Molecule>
CN(C)c1c(Br)cc2c3c(cccc13)C(=O)N(O)C2=O

>  <Endpoint>
melting point

>  <Recorded Value>
185 to 187 °C

$$$$
>  <Molecule>
O=C(Cl)c1ccc(-c2nc(C(Cl)(Cl)Cl)nc(C(Cl)(Cl)Cl)n2)cc1

>  <Endpoint>
melting point

>  <Recorded Value>
100 to 101 °C

$$$$
>  <Molecule>
CC(=O)OCc1ccc(C=O)cc1

>  <Endpoint>
melting point

>  <Recorded Value>
32 °C

$$$$
>  <Molecule>
CC(=O)COc1cccc2ccc(OC(C)=O)nc12

>  <Endpoint>
melting point

>  <Recorded Value>
79 to 80 °C

$$$$
>  <Molecule>
Cc1cc(-c2ccccc2)c2c(n1)C(C(N)=S)CCC2 (stereo unspecified)

>  <Endpoint>
melting point

>  <Recorded Value>
174 to 175 °C

$$$$
>  <Molecule>
CCCc1c(OCc2ccc(C=CC(=O)O)c(OC)c2)ccc(C(C)=O)c1O

>  <Endpoint>
melting point

>  <Recorded Value>
214 to 216 °C

$$$$
>  <Molecule>
O=S1(=O)c2ccccc2N(c2ccc(O)cc2)c2ccccc21

>  <Endpoint>
melting point

>  <Recorded Value>
308 to 311 °C

$$$$
>  <Molecule>
Cc1cc(SCc2ccc(OC3CCc4cc(Cl)ccc43)cc2)ccc1OCC(=O)O (stereo unspecified)

>  <Endpoint>
melting point

>  <Recorded Value>
130 to 131 °C

$$$$
